target: GST-labeled HGS (Human) Recombinant Protein (Homo sapiens, UniProt O14964); construct: purchased Abnova; experiment: SPR interaction screening with immobilized GST-labeled HGS; assay type: binding; conditions: ProteOn XPR36, GST value as blank
Sequence (O14964 whole entry): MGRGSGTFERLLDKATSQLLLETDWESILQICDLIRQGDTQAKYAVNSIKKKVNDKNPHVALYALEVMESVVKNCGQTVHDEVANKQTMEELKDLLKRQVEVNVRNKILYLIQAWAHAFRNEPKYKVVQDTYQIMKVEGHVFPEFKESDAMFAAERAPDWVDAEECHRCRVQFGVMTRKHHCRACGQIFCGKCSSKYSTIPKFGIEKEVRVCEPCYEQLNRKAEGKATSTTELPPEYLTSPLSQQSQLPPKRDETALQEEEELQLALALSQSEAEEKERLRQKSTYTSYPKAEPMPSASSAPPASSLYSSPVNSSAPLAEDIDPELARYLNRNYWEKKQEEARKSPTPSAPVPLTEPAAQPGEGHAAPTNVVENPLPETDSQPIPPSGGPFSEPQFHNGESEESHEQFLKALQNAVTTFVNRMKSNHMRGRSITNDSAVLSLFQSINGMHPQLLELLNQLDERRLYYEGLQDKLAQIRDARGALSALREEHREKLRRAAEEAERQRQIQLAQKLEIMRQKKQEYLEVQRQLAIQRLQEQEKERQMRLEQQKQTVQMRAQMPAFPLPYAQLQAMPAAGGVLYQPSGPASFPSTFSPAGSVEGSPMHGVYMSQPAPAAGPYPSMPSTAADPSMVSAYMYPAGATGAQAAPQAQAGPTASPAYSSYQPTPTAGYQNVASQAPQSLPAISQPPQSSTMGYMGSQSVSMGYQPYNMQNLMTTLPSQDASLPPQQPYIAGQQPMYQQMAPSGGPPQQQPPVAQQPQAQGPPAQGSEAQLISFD
experimental readout: interaction with HGS, dissociation rate constant (Kd) as index

residue sequence	measured
RRLYYEGLQD [OP10-463]	strong interaction
QIQLAQKLEI [OP10-507]	strong interaction
VQRQLAIQRL [OP10-527]	strong interaction

---

Biological target: GST-labeled STAM (Human) Recombinant Protein (Homo sapiens, UniProt Q92783)
Construct: purchased Abnova
Sequence (Q92783 1-540): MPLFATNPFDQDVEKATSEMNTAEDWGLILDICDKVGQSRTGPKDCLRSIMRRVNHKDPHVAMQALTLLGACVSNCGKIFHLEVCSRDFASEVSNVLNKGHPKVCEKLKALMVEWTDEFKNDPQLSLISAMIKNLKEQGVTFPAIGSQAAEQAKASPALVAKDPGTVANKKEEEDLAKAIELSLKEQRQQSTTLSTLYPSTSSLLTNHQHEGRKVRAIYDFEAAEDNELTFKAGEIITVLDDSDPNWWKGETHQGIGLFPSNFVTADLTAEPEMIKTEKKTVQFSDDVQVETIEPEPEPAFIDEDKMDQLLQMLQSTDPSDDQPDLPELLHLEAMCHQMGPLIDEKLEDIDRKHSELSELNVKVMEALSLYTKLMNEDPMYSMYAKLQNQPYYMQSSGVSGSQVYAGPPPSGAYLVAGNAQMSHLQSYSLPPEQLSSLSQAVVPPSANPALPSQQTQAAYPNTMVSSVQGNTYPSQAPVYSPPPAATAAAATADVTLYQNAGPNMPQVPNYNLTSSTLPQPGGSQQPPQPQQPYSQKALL
Experiment: SPR interaction screening with immobilized GST-labeled STAM
Assay type: binding
Conditions: ProteOn XPR36, GST value as blank
experimental readout: interaction with STAM, dissociation rate constant (Kd) as index

residue sequence	measured
RRLYYEGLQD [OP10-463]	strong interaction
VQRQLAIQRL [OP10-527]	strong interaction
QIQLAQKLEI [OP10-507]	strong interaction
